test: yeast display, Sf9 membrane polyspecificity reagent, FACS + sequencing; frameworks hold sequencing errors
measure_name: polyreactivity (PSR sort gate)

>>> result("QVQLVETGGGLVQAGGSLRLSCAASGIIIPWYTMGWYRQAPGKERELVAAISSGGRTNYADSVKGRFTISRDNAKNTVYLQMNSLIPEDTAVYYCAANYYRDRDWGQGTQVTVSS")
"high polyreactivity"
>>> result("QVQLVESGGGLVQAGGSLRLSCAAYGSTFRYYAMGWYRQAPGKERELVAAITSSGGSTYYADSVKGRFTISRDNAKNTVFLQMNSLKPEDTAVYYCAVAVKNWVKLNYWGQGSQVTVSS")
"high polyreactivity"
>>> result("QVQLVESGGGLDQAGGSLRLSCAASGRTFTVNTMGWYIQAPGKERELVAAIPNGGSTNYADSVKGRFTISHDNAKNTVYLQMNSLKPEDTAVYYCAAYYYYTLYYRYDYWGQGTQVTVSS")
"low polyreactivity"
>>> result("QVQLVESGGGLVQAGGSLRLSCAASGSIFSFYAMGWYRQAPGKRELVAAISGNGGSTFYADSVKGRFTISRDNAKNTVYLQMNSLKPEDTAVYYCAAYSYRYKYYYWGQGTQVTVSS")
"high polyreactivity"
>>> result("QVQLVESGGGLVQAGGSLRLSCAASGSTFGRYTMGWYRQAPGKEREFVAAIRWSGGNTYYADSVKGRFTISRDNAKNTVYLQMNSLKPEDTAVYYCNRVYSTIGDYWGQGTQVTVSS")
"low polyreactivity"
>>> result("QVQLVESGGGLVQAGGSLRLSCAASGIIFEGNVMGWYRQAPGKERELVAAITSDTSTNYADSVKGRFTISRDNAKNSVYLQMNSLKPEDTAVYYCDALRRYPRPNIYGYWGQGTQVTVSS")
"low polyreactivity"
>>> result("QVQLVESGGGLVQAGGSLRLSCAPSARTFVYNAMGWYRQAPGKERELVAAIDGGGDRTYYADSVKGRFTISRDNAKYTVYIQMYSLKPEDTAVYYCARDPGDTYYYSYPEGDYWGQGTQVTVSS")
"low polyreactivity"
>>> result("QVQLVESGGGLVQAGGSLRLSCAASGSTLRGYAMGWYRQAPGKERELVARITSGGRTSYADSVKGRFTISRDNAKNTVYLQMNSLKPEDTAVYYCATRIYGWSFGSWYKYDYWGQGTQVTVSS")
"low polyreactivity"
>>> result("QVQLVESWGGLVQAGGSLRLSCDDSGFTIRVYAMGWYRQAPGKERELVAAISVRGDSTYYADSVKGRFTISRDNAKNTVYLQMNSLKPEDTAVYYCNAVIAPYRRYDYWGQGTQVTVSS")
"high polyreactivity"
>>> result("QVQLVESGGGLVQAGGSLRLSCAASGSIFVGNAMGWYRQAPGKERELVAAISWGGARTYYADSVKGRFTISRDNAKNTVYLQMNSLKQEDTAVYYCAAGSSSRSTTHYYYWGQGTQVTVSS")
"high polyreactivity"
>>> result("QVQLVESGGGLVQAGGSLRLSCAASGSIFYRNAMGWYRQAPGKERELVATITVNGGRTYYADSVKGRFTISRDNANNTVYLQMNSLKPEDTAVYDCAKDVHRWDPYDYWGQGTQVTVSS")
"low polyreactivity"

###

test: yeast display, Sf9 membrane polyspecificity reagent, FACS + sequencing; frameworks hold sequencing errors
measure_name: polyreactivity (PSR sort gate)

>>> result("QVQLVESGGGLVQAGGSLRLSCAASGSIFGYNAMGWYRQAPGKERELVAAISSSGSSTYADSVKGRFTISRDNAKNTVYLQMNSLKPEDTAVYYCNKTTLLTVEYDYWGQGTQVTVSS")
"low polyreactivity"
>>> result("QVQRVESGGGLVQAGGSLRLSCAASGYTFYFYDMGWYRQAPGKERELVAAITSSGGSTYYADSVKGRFTISRDNAKNTVYLQMNSLKPEDTAVYYCNALITYSSDYWGQGTQVTVSS")
"low polyreactivity"
>>> result("QVQLVESGGGLVQAGGSLRLSCAASGRTFYPYAMGWYRQAPGKERELVAAIDYSSATTYYADSVKGRFTISRDNAKNTVYLQMNSLKPEDTAVFYCARVGIGVGWTKLNYWGQGTQVTVSS")
"low polyreactivity"
>>> result("QVQLVESGGGLVQAGGSLRLSCAASGIIFIKYAMGWYRQAPGKERELVAAITSGGSTHYADSVKGRFTISRDNAKNTVYLQMNSLKPEDTAVYYCNADILRHVAYFKDRYQAGSYWGQGTQVTVSS")
"low polyreactivity"
>>> result("QVQLVESGGGLVQAGGSLRLSCAASGITIGSNVMGWYRQAPGKERELVAAISQSGGRTYYADSVKGRFTISRDNAKNTVYLQMNSLKPEYTAVYYCAKRQRSFYGRPMGDYWGQGTQVTVSS")
"high polyreactivity"
>>> result("QVQLVESGGGLVQAGGSLRLSCAASGSTFDYYAMGWDRQAPGKERELVAAIRWSSGRTYYADSVKGRFTISRDNAKNTVYLQMHSLKPEDTAVYYCASAGHRGQGGPRYNYWGQGTQVTVSS")
"high polyreactivity"
>>> result("QVQLVESGGRLVQAGGSLRLSCAASRRIFTFYAMGWSRPAPGKERELVAAITGRGGSTYYADSVKGRFTISRDNAKNTVYLQMNSLKPEDTAVYYCAKRTSYRSHRYYYWGQGTQVTVSS")
"high polyreactivity"
>>> result("HVQLVESGGGLVQAGGSLRLSCAASGSIFRGNAMGWYRQAPGKERELVAAISKSGGSTYYADSVKGRFTISRDNAKNTVFVQMNSLKPEDTAVYYCAARTTYLYGMYYWGQGTQVTVSS")
"low polyreactivity"
>>> result("QVQLVESGGGLVQAGGSLRLSCAASGRIITWYAMGCYRQAPGKERELVAAISWSGGSTYYADSVTGRFTISRDNAKNTVYLQMNSLKPEDTAVYYCNKVTVTGLYDYWGQGTQVTVSS")
"high polyreactivity"
>>> result("QVQQVESGGGLVQAGGSLRLSCAATGRTFALYAMGWYRLAPGKERELVAGITFRGGSTYYADSVKGRFTISRDNAKNTVYLQMNSLKPEDTAVYYCAAERWRWYYSWTMDYWGQGTQVTVSS")
"high polyreactivity"
>>> result("QVQHVESGGGLVQAGGSLRLTCAATGFTFATYTMGWYRQAPGKERELFAAISSGGNTNYADSVKGRFTISRDNAKNTVYLQMNSLKPEDTAVYYCARGATLLQYYYWGVYEYDSWGQGTQVTVSS")
"low polyreactivity"
